Assay: in vivo
Conditions: male, Sprague-Dawley, rat, plasma, po, 2 mg/kg
measurement_type: concentration at 6 h (ng/mL)
Field: numeric (ng/mL). Do not append units.

Exercise: // query concentration at 6 h value for entry [2H]C([2H])([2H])n1c(=O)c2c(ncn2C([2H])([2H])[2H])n(C([2H])([2H])[2H])c1=O
Key: 1790

----------
Assay: in vivo
Settings: male, Sprague-Dawley, rat, plasma, po, 2 mg/kg
measurement_type: concentration at 8 h (ng/mL)
Quick note: give the figure in ng/mL, leave out the unit.

Exercise: What value of concentration at 8 h has been recorded for this entry: [2H]C([2H])([2H])n1c(=O)c2c(ncn2C([2H])([2H])[2H])n(C([2H])([2H])[2H])c1=O [Compound D9-Caffeine, D9-caffeine]
Key: 1550

----------
For each of the compounds below, state its Cmax.
Test: in vivo
Conditions: male, Sprague-Dawley, rat, plasma, po, 2 mg/kg
A number alone suffices; assume ng/mL.

Exercise: Dear colleague, I am looking for the recorded Cmax of the following compound: [2H]C([2H])([2H])n1c(=O)c2c(ncn2C([2H])([2H])[2H])n(C([2H])([2H])[2H])c1=O
Key: 2400

Exercise: Request the reported Cmax associated with Cn1c(=O)c2c(ncn2C)n(C)c1=O [Caffeine, reference compound]
Key: 2600

----------
Test: in vivo
Details: male, Sprague-Dawley, rat, plasma, po, 2 mg/kg
measurement_type: concentration at 14 h (ng/mL)
Numeric answer only, unit ng/mL assumed.

Exercise: Field request: concentration at 14 h | item: [2H]C([2H])([2H])n1c(=O)c2c(ncn2C([2H])([2H])[2H])n(C([2H])([2H])[2H])c1=O
Key: 682

----------
Experiment: in vivo
Details: male, Sprague-Dawley, rat, plasma, po, 2 mg/kg
measurement_type: concentration at 3 h (ng/mL)
Report only the number, with the unit ng/mL understood.

Exercise: Entry Cn1c(=O)c2c(ncn2C)n(C)c1=O [Caffeine, reference compound] : reported concentration at 3 h = ?
Key: 2030

Exercise: Consider the compound [2H]C([2H])([2H])n1c(=O)c2c(ncn2C([2H])([2H])[2H])n(C([2H])([2H])[2H])c1=O and give its measured concentration at 3 h.
Key: 2360

----------
Would you mind telling me the reported AUC(0-t) of each entry?
Assay: in vivo
Conditions: male, Sprague-Dawley, rat, plasma, po, 2 mg/kg
Write the number in ng·h/mL without appending the unit.

Exercise: For the compound shown here, Cn1c(=O)c2c(ncn2C)n(C)c1=O [Caffeine, reference compound] , give the reported AUC(0-t).
Key: 16000

Exercise: Dear colleague, I am looking for the recorded AUC(0-t) of the following compound: [2H]C([2H])([2H])n1c(=O)c2c(ncn2C([2H])([2H])[2H])n(C([2H])([2H])[2H])c1=O [Compound D9-Caffeine, D9-caffeine]
Key: 22000

----------
Assay: in vivo
Details: male, Sprague-Dawley, rat, plasma, po, 2 mg/kg
measurement_type: Tmax
Be sure to follow the number with its unit.

Exercise: Which Tmax value belongs to Cn1c(=O)c2c(ncn2C)n(C)c1=O [Caffeine, reference compound] ?
Key: 1 h

Exercise: For the compound shown here, [2H]C([2H])([2H])n1c(=O)c2c(ncn2C([2H])([2H])[2H])n(C([2H])([2H])[2H])c1=O , give the reported Tmax.
Key: 3 h

----------
Assay: Brain concentrations and brain pharmacokinetics after a single oral (gavage) dose in fasted male Sprague-Dawley rats, LC-MS/MS
Assay type: in vivo
Details: rat; brain; oral gavage 2 mg/kg; fasted male Sprague Dawley rats
Exercise: state measured Tmax for each of the compounds provided.
Use h as the unit, but write only the number.

Exercise: Reported Tmax for [2H]C([2H])([2H])n1c(=O)c2c(ncn2C([2H])([2H])[2H])n(C([2H])([2H])[2H])c1=O : what is it?
Key: 4

Exercise: Recorded Tmax of Cn1c(=O)c2c(ncn2C)n(C)c1=O [Caffeine, reference compound] , please.
Key: 1

----------
Assay: in vivo
Settings: male, Sprague-Dawley, rat, plasma, po, 2 mg/kg
measurement_type: concentration at 0.25 h (ng/mL)
# unit: ng/mL | format: bare number

Exercise: Query: concentration at 0.25 h; subject: Cn1c(=O)c2c(ncn2C)n(C)c1=O [Caffeine, reference compound]
Key: 2420

Exercise: May I ask what concentration at 0.25 h has been recorded for [2H]C([2H])([2H])n1c(=O)c2c(ncn2C([2H])([2H])[2H])n(C([2H])([2H])[2H])c1=O ?
Key: 1720

----------
Assay: Brain concentrations and brain pharmacokinetics after a single oral (gavage) dose in fasted male Sprague-Dawley rats, LC-MS/MS
Type: in vivo
Settings: male, Sprague-Dawley, rat, brain, po, 2 mg/kg, 1 hour post dose; oral gavage 2 mg/kg; fasted male Sprague-Dawley rats; n = 3/time point
measurement_type: concentration at 1 h (ng/g)
Just the number please, in ng/g, no unit attached.

Exercise: Name the recorded concentration at 1 h for [2H]C([2H])([2H])n1c(=O)c2c(ncn2C([2H])([2H])[2H])n(C([2H])([2H])[2H])c1=O .
Key: 1540

Exercise: Which concentration at 1 h is reported for this compound? Cn1c(=O)c2c(ncn2C)n(C)c1=O [Caffeine, reference compound]
Key: 1910

----------
Test: Brain concentrations and brain pharmacokinetics after a single oral (gavage) dose in fasted male Sprague-Dawley rats, LC-MS/MS
Type: in vivo
Conditions: male, Sprague-Dawley, rat, brain, po, 2 mg/kg, brain; molecular weight corrected (caffeine values multiplied by 0.956); oral gavage 2 mg/kg; rats; read-out: Cmax,corr
measurement_type: Cmax (ng/mL)
Output spec: scalar in ng/mL, unitless text.

Exercise: Dear colleague, I am looking for the recorded Cmax of the following molecule: Cn1c(=O)c2c(ncn2C)n(C)c1=O [Caffeine, reference compound]
Key: 1820

Exercise: // lookup Cmax for [2H]C([2H])([2H])n1c(=O)c2c(ncn2C([2H])([2H])[2H])n(C([2H])([2H])[2H])c1=O
Key: 1600

----------
Experiment: in vivo
Settings: male, Sprague-Dawley, rat, plasma, po, 2 mg/kg
Give concentration at 0.5 h for every item shown.
Lab book: enter the figure in ng/mL, no units written.

Exercise: Consider the molecule shown here: Cn1c(=O)c2c(ncn2C)n(C)c1=O [Caffeine, reference compound] What is its recorded concentration at 0.5 h?
Key: 2410

Exercise: Item under review: [2H]C([2H])([2H])n1c(=O)c2c(ncn2C([2H])([2H])[2H])n(C([2H])([2H])[2H])c1=O [Compound D9-Caffeine, D9-caffeine] . Reported concentration at 0.5 h?
Key: 1740

----------
Experiment: Brain concentrations and brain pharmacokinetics after a single oral (gavage) dose in fasted male Sprague-Dawley rats, LC-MS/MS
Type: in vivo
Conditions: rat; brain; oral gavage 2 mg/kg; fasted male Sprague Dawley rats
measurement_type: AUC(0-inf) (ng·h/mL)
Use ng·h/mL as the unit, but write only the number.

Exercise: I'd like to know its AUC(0-inf). The compound in question is Cn1c(=O)c2c(ncn2C)n(C)c1=O [Caffeine, reference compound]
Key: 11000

----------
Assay: in vivo
Conditions: male, Sprague-Dawley, rat, plasma, po, 2 mg/kg
measurement_type: concentration at 12 h (ng/mL)
Quick note: give the figure in ng/mL, leave out the unit.

Exercise: State the recorded concentration at 12 h for this entry: [2H]C([2H])([2H])n1c(=O)c2c(ncn2C([2H])([2H])[2H])n(C([2H])([2H])[2H])c1=O [Compound D9-Caffeine, D9-caffeine]
Key: 897

----------
Test: Brain concentrations and brain pharmacokinetics after a single oral (gavage) dose in fasted male Sprague-Dawley rats, LC-MS/MS
Type: in vivo
Details: rat; brain; oral gavage 2 mg/kg; fasted male Sprague Dawley rats; read-out: Ratio Brain/Plasma AUClast
measurement_type: Kp

Exercise: For the compound [2H]C([2H])([2H])n1c(=O)c2c(ncn2C([2H])([2H])[2H])n(C([2H])([2H])[2H])c1=O [Compound D9-Caffeine, D9-caffeine] , what Kp is on record?
Key: 0.73

Exercise: Which Kp reading was recorded for the compound Cn1c(=O)c2c(ncn2C)n(C)c1=O [Caffeine, reference compound] ?
Key: 0.69

----------
Assay: in vivo
Conditions: male, Sprague-Dawley, rat, plasma, po, 2 mg/kg
Provide the reported concentration at 4 h of each item.
Record the value in ng/mL, omitting the unit from your answer.

Exercise: If you can, please state the reported concentration at 4 h value of [2H]C([2H])([2H])n1c(=O)c2c(ncn2C([2H])([2H])[2H])n(C([2H])([2H])[2H])c1=O .
Key: 2270

Exercise: Looking for the measured concentration at 4 h of Cn1c(=O)c2c(ncn2C)n(C)c1=O [Caffeine, reference compound] , can you help?
Key: 1820
